Ref: the supplement of paper PMC7877785

assay: self-splicing fitness, log relative to wild type (ln ratio); higher = more splicing; Tetrahymena group I intron in knt gene, E. coli kanamycin selection, DiMSum; sequences stand for … in CUCUCU…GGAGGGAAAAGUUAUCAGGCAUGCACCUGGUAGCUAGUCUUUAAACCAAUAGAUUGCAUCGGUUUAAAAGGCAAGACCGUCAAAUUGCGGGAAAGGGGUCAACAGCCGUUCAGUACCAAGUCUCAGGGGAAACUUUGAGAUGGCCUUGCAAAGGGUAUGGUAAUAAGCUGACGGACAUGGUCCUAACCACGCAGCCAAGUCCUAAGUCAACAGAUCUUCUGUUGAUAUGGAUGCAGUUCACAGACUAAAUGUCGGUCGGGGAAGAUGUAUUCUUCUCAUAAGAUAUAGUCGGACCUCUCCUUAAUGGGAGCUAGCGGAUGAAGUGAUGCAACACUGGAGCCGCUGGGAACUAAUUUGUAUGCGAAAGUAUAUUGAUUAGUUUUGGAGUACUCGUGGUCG; conditions: 37 °C;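 also: selection with 25 µg/mL kanamycin versus none on LB agar overnight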
Note to self: values exactly at -1 are yes. So self-splicing fitness (ln) at or above -1 is yes, below is no.

residue.sequence	answer.label
GUACAGCAAUAUUACGCGGU	no
GGUGAGCAAUAUUACGAGCA	no
CUCGAGCAAUAUUACGGCAC	no
UCGCAGCAAUAUUACGCCUG	no
UGAAAGCAAUAUUACGUGAC	no
GUUUAGCAAUAUUACGGUAG	no
UGUAAGCAAUAUUACGAUAU	yes
GCCUAGCAAUAUUACGCCUU	yes
